- study.target: Recombinant Human MMP-13 (Homo sapiens)
- Construct: purchased R&D systems 511-MM
- procedure.summary: MMP-13 inhibitory activity (MMP-13 specific fluorescent substrate with quencher)
- Assay type: biochemical
- condition.description: Recombinant Human MMP-13, fluorescent substrate, 25° C. for 1 h; read-out: IC50 MMP13 (Experimental Example 3)
Recorded IC50 for the following compounds

compound | IC50
O=C(O)C1(NS(=O)(=O)N2CCN(c3cccc(Cl)c3)CC2)CC1c1ccccc1 (stereo not drawn) | ≥ 1000 nM
O=C(O)c1ccccc1C1CC1(NS(=O)(=O)c1ccc(-c2ccc(Cl)cc2)s1)C(=O)O (stereo not drawn) | < 100 nM
O=C(O)c1cccc([C@H]2C[C@@]2(NS(=O)(=O)c2ccc(-c3ccc(Cl)cc3)s2)C(=O)O)c1 | < 1000 nM
CS(=O)(=O)Nc1cccc(C2CC2(NS(=O)(=O)c2ccc(-c3ccc(Cl)cc3)s2)C(=O)O)c1 (stereo not drawn) | < 100 nM
Cc1csc(-c2cccc(C3CC3(NS(=O)(=O)c3ccc(-c4ccc(Cl)cc4)s3)C(=O)O)c2)n1 (stereo not drawn) | < 1000 nM

Supply measured IC50 of Nc1ccc(S(=O)(=O)NC2(C(=O)O)CC2c2ccccc2)s1 (stereo not drawn) in your reply. ≥ 1000 nM

Output IC50 of O=C(O)C1(NS(=O)(=O)c2ccc(-c3ccc(Cl)cc3)s2)CC1c1ccc(N2CCOCC2)cc1 (stereo not drawn) < 1000 nM

Indicate its recorded IC50; the compound in question is O=C(O)C1(NS(=O)(=O)c2ccc(-c3cc(C(F)(F)F)on3)s2)CC1c1cccc([N+](=O)[O-])c1 (stereo not drawn) < 1000 nM

Supply reported IC50 belonging to this compound: CC(F)(F)c1cc(-c2ccc(S(=O)(=O)N[C@@]3(C(=O)O)C[C@]3(C)c3ccccc3)s2)no1 < 100 nM

Given CCCNC(=O)c1ccc(S(=O)(=O)NC2(C(=O)O)CC2c2ccccc2)s1 (stereo not drawn) , respond with its IC50. ≥ 1000 nM

Provide one value: measured IC50 of O=C(CCc1ccccc1C1CC1(NS(=O)(=O)c1ccc(-c2cc(C(F)(F)F)on2)s1)C(=O)O)N1CCOCC1 (stereo not drawn) < 100 nM

Provide IC50 value for the following compound: O=C(O)[C@@]1(NS(=O)(=O)c2ccc3c(c2)Cc2cc(F)ccc2-3)C[C@H]1c1ccccc1 < 1000 nM

Respond only with IC50 recorded for COC(=O)N1CC=C(c2ccc(S(=O)(=O)N[C@@]3(C(=O)O)C[C@@H]3c3ccccc3)s2)CC1 ≥ 1000 nM

Tell us which IC50 value is on record for CC(=O)N1Cc2ccccc2C2(C1)CC2(NS(=O)(=O)c1ccc(-c2ccc(Cl)cc2)s1)C(=O)O (stereo not drawn) < 1000 nM

Return reported IC50. Input compound: O=C(O)C1(NS(=O)(=O)c2ccc(-c3ccc(Cl)cc3)s2)CC1c1ccc(Br)cc1 (stereo not drawn) [Example 2-203] < 100 nM
